Data origin: ChEMBL document CHEMBL1135450

Let's look at some molecules and their measured Ki.
Target: Calpain-1 catalytic subunit (Homo sapiens)
Sequence (P07384 whole entry): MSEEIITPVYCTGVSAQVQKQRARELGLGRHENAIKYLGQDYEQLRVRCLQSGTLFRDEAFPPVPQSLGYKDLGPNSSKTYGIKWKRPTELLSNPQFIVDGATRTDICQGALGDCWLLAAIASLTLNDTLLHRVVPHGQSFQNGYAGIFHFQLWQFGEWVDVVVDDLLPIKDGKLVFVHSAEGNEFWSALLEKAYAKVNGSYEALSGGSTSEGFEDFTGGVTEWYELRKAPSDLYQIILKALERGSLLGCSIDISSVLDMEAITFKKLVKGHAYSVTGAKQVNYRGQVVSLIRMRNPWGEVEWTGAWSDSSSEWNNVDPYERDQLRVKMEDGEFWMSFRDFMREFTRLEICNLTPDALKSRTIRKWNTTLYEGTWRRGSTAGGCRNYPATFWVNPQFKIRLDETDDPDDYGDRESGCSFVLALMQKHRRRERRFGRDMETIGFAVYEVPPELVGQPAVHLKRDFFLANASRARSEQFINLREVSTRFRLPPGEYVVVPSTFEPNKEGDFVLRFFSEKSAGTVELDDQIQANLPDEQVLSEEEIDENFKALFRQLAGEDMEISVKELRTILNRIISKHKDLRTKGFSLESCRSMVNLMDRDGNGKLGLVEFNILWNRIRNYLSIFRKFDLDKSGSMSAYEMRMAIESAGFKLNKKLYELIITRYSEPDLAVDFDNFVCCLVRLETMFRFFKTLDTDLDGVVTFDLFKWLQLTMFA
Assay: Inhibition of calpain, using human mu-calpain isolated from erythrocytes and Suc-Leu-Tyr-AMC as the fluorogenic substrate
Test readout: Ki (nM)

> print(dat)
                                   molecule  test.readout  scale.unit  test.result
1  O=CC(Cc1ccccc1)NC(=O)c1ccccc1Cc1ccccc1 (stereo unspecified)            Ki          nM          370
2  COc1ccc(/C=C/c2ccccc2C(=O)NC(Cc2ccccc2)C(=O)C(N)=O)cc1OC (stereo unspecified)            Ki          nM           80
3  NC(=O)C(=O)C(Cc1ccccc1)NC(=O)c1ccccc1-c1ccccc1 (stereo unspecified)            Ki          nM           40
4  O=CC(Cc1ccccc1)NC(=O)c1ccccc1Cc1ccc2ccccc2c1 (stereo unspecified)            Ki          nM          200
5  NC(=O)C(=O)C(Cc1ccccc1)NC(=O)c1ccccc1/C=C/c1ccc2ccccc2c1 (stereo unspecified)            Ki          nM            6
6  O=CC(Cc1ccccc1)NC(=O)c1ccccc1COc1ccccc1 (stereo unspecified)            Ki          nM          450
